Test system: HUVEC
Assay: Agonist-enhanced neutrophil adherence to HUVEC
Assay type: cell-based, human
Details: 20 μmol/l, 1 hr pre-treatment, TNF 4 hr
MEASURE: Inhibition of TNF-α-enhanced neutrophil adhesion to HUVEC

In [3]: df
Out[3]:
                                   molecule  target_under_test                 result
0  CC/C=C\C/C=C\C/C=C\C/C=C\C/C=C\C/C=C\CCC(=O)O [22:6n-3, docosahexaenoic acid, reference compound]              HUVEC  no significant effect
1  CCCCC/C=C\C/C=C\CCCCCCCC(=O)O [18:2n-6, octadecadienoic acid, reference compound]              HUVEC  no significant effect
